system: EKVX; test: NCI tumour cell line growth inhibition, 48 h
Active and inactive are the calls of the source. Rule as the data show it: active = GI50 up to about 1.1 µM and inactive = higher.
Measure: GI50

Exercise: Entry O=C(CNc1nccs1)Nn1cnc2ccc(S(=O)(=O)Nc3nccs3)cc2c1=O has what GI50?
Solution: > 100 µM (inactive)

Exercise: Let us now turn to O=C(O)CNC(=O)c1ccccc1O
Solution: > 100 µM (inactive)

Exercise: Let us now turn to Cc1c2ccncc2c(C)c2c1sc1ccccc12
Solution: 4.75 µM (inactive)

Exercise: Let us now turn to COc1ccc(N2C(=O)C3c4[nH]c5cccc(Cl)c5c4C4CCC(C(C)(C)C)CC4C3C2=O)cc1 (configuration not stated)
Solution: > 100 µM (inactive)

Exercise: Let us now turn to COCCOCOC(C)(C)[C@H](CCOC(C)=O)O[Si](c1ccccc1)(c1ccccc1)C(C)(C)C
Solution: 27.2 µM (inactive)

Exercise: Let us now turn to Cc1c(C(=O)OCc2ccccc2)[n+]([O-])c2cc(F)c(F)cc2[n+]1[O-]
Solution: 3.26 µM (inactive)

Exercise: Let us now turn to COc1ccc(-n2c(Cn3nnc(-c4cccnc4)n3)nn(C3OC(COC(=O)c4ccccc4)C(OC(=O)c4ccccc4)C3OC(=O)c3ccccc3)c2=S)cc1 (configuration not stated)
Solution: 39.4 µM (inactive)

Exercise: Let us now turn to CC(=O)O/N=C1\C=Cc2c(no[n+]2[O-])C1=O
Solution: 17.3 µM (inactive)

Exercise: Let us now turn to COc1ccc2cc3[n+](cc2c1OC)CCc1cc(O)c(O)cc1-3
Solution: > 100 µM (inactive)

Exercise: Let us now turn to COc1ccc(-c2cc3cc(Cl)cc(Cl)c3oc2=O)cc1OC
Solution: 92.9 µM (inactive)

Exercise: Let us now turn to COC(=O)N/N=C(\c1ccccc1)c1ccc(OC)cc1
Solution: > 100 µM (inactive)

Exercise: Let us now turn to CC1=NN(c2nc(N)nc(-c3ccccc3S(N)(=O)=O)n2)C(C)(C)C1
Solution: 36.1 µM (inactive)

Exercise: Let us now turn to Cc1nnc([C@@]2(C)CC[C@H]3[C@@H](CCC4=CC(=O)CC[C@@]43C)[C@@H]2CC#N)o1
Solution: > 100 µM (inactive)

Exercise: Let us now turn to CCCC(=O)NC1=C(Cl)C(=O)c2ccccc2C1=O
Solution: 3.72 µM (inactive)

Exercise: Let us now turn to Cc1ccc2c(c1)CNc1ccc(C)cc1CN2
Solution: > 100 µM (inactive)

Exercise: Let us now turn to O=C1C(Br)=C(c2ccccc2)O/C1=C/C(=O)c1ccc(Br)cc1
Solution: > 100 µM (inactive)

Exercise: Let us now turn to S=c1[nH]c2c(Cl)c(Cl)c(Cl)c(Cl)c2[nH]1
Solution: 11.8 µM (inactive)

====

system: SK-MEL-2; assay: NCI tumour cell line growth inhibition, 48 h
Calls of active or inactive are those of the source. No stated cut-off is given here; in the data, active = GI50 up to about 1.1 µM and inactive = higher.
Assign GI50 to each entry below.

Exercise: Entry Cc1[nH]c(=O)c2oc3cc4ccccc4cc3c2c1C(=O)O has what GI50?
Solution: > 10 µM (inactive)

Exercise: Let us now turn to COS(C)(=O)=O
Solution: > 2 µM (inactive)

Exercise: Let us now turn to CCOC(=O)C(NC(=O)c1ccccc1)(c1ccc(S(=O)(=O)Nc2onc(C)c2C)cc1)C(F)(F)F (centres undefined)
Solution: > 100 µM (inactive)

Exercise: Let us now turn to C1=N\CCOCC/N=C\c2ccc(cc2)OCc2cccc(n2)COc2ccc/1cc2
Solution: > 100 µM (inactive)

Exercise: Let us now turn to Cc1c(C(=O)O)c2cc3ccccc3cc2c(=O)n1C
Solution: > 10 µM (inactive)

Exercise: Let us now turn to S=C(/N=C1/NCC(CN2CCN(c3ccccc3)CC2)O1)Nc1ccccc1 (centres undefined)
Solution: 35.6 µM (inactive)

Exercise: Let us now turn to COC(=O)c1ccc(COC(=O)N2C=CCC2C(=O)O)cc1 (centres undefined)
Solution: > 100 µM (inactive)

Exercise: Let us now turn to Cc1nc2c(n1CCO)C(=O)c1ccccc1C2=O
Solution: 18.4 µM (inactive)

Exercise: Let us now turn to O=C1C(Cl)C(c2ccccc2)N1n1cnc2ccccc2c1=O (centres undefined)
Solution: > 100 µM (inactive)

Exercise: Let us now turn to CC1(C)C2CCC1(CC(=O)O)C(Cl)C2 (centres undefined)
Solution: > 100 µM (inactive)

Exercise: Let us now turn to COc1ccc2c(c1)Oc1cc(O)ccc1[C@H]2c1ccccc1C(=O)NC(C)c1ccccc1 (some centres undefined)
Solution: 21.5 µM (inactive)

Exercise: Let us now turn to CC1(C)OCC([C@H]2CC23SCCCS3)O1 (some centres undefined)
Solution: > 100 µM (inactive)

Exercise: Let us now turn to CC(/C=C/C=C\C=C\C=C(/C)C(=O)NC(C)CO)=C\C(C)C(O)/C(C)=C/C(C)CCc1ccccc1 (centres undefined)
Solution: 13.2 µM (inactive)

Exercise: Let us now turn to C[C@@H](c1ccccc1)N1CN(C(=O)OCc2ccccc2)C(CO)C1=O (some centres undefined)
Solution: > 100 µM (inactive)
